Taken from the supplement of paper PMC10307832.

- System: RERF-LC-KJ
- experimentalProtocol: relative viability (nuclei count vs DMSO), 5 days (fraction); higher = more cells survive
- testContext: first compound 0.005 µM
measurementLabel: relative viability
Answer with a number only.

Solved entries:
COc1cc2nccc(Oc3ccc(NC(=O)Nc4cc(C)on4)c(Cl)c3)c2cc1OC [Tivozanib] + CCNC(=O)c1noc(-c2cc(C(C)C)c(O)cc2O)c1-c1ccc(CN2CCOCC2)cc1 [Luminespib] (partner 0.01 µM)	1.16
Nc1ccn([C@@H]2O[C@H](CO)[C@@H](O)[C@@H]2O)c(=O)n1 [Cytarabine] + Cc1nc(NC(=O)N2CCC[C@H]2C(N)=O)sc1-c1ccnc(C(C)(C)C(F)(F)F)c1 [Alpelisib] (partner 2 µM)	0.742
COc1cc2nccc(Oc3ccc(NC(=O)Nc4cc(C)on4)c(Cl)c3)c2cc1OC [Tivozanib] + CS(=O)(=O)N1CCN(Cc2cc3nc(-c4cccc5[nH]ncc45)nc(N4CCOCC4)c3s2)CC1 [Pictilisib] (partner 1 µM)	0.509

Attention now shifts to the item below.
Dear colleague, I am looking for the recorded relative viability of the following molecule: COc1cc2nccc(Oc3ccc(NC(=O)Nc4cc(C)on4)c(Cl)c3)c2cc1OC [Tivozanib] + CS(=O)(=O)CCNCc1ccc(-c2ccc3ncnc(Nc4ccc(OCc5cccc(F)c5)c(Cl)c4)c3c2)o1 [Lapatinib] (partner 2 µM)
0.816
